- tested_on: human GLP-1 receptor (human, UniProt P43220 24-463)
- assay_procedure: cell-based or functional assay
Bridge positions count the residues as written; N and C are the ends. Square brackets hold non-standard residues; d marks the D form. Ends that are not written are not given here. * marks the point of attachment. Acetyl(2-(4-imidazolyl)) = O=C(Cc1c[nH]cn1)*; Aib = CC(C)(N)C(=O)O
# if measured In vitro activity compared to native-type peptide (%), vs GLP-1 < 40%: 1  # else: -1

| binder | group |
| --- | --- |
| H[Aib]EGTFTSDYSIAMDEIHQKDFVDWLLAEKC (bridge 16-20) [triple agonist of SEQ ID NO: 80] | 1 |
| Y[Aib]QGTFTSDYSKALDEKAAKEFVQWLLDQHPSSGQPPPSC (bridge 16-20) [triple agonist of SEQ ID NO: 100] | -1 |
| H[Aib]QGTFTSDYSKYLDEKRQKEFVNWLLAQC (also: ring formation (underlined residues), positions not given here) [triple agonist of SEQ ID NO: 56] | -1 |
| {Acetyl(2-(4-imidazolyl))}-[Aib]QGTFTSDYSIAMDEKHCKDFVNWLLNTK (bridge 15-19) [triple agonist of SEQ ID NO: 60] | -1 |
| [Acetyl(2-(4-imidazolyl))]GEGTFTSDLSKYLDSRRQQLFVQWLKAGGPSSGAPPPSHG [triple agonist of SEQ ID NO: 11] | 1 |
